experiment: Growth inhibition in HCC116 cells; format: functional; details: Homo sapiens

- CHEM_SMILES: "COc1cc(-c2nncn2-c2ccc(N(C)C)cc2)cc(OC)c1OC"
  GI50 [nM]: 60.3
- CHEM_SMILES: "COc1ccc(-n2cnnc2-c2cc(OC)c(OC)c(OC)c2)cc1"
  GI50 [nM]: 3020
- CHEM_SMILES: "COc1cc(-c2nncn2-c2ccc3c(ccn3C)c2)cc(OC)c1OC"
  GI50 [nM]: 30.9
- CHEM_SMILES: "COc1ccc(-n2cnnc2-c2cc(OC)c(OC)c(OC)c2)cc1O"
  GI50 [nM]: 398
- CHEM_SMILES: "COc1ccc(-n2cnnc2-c2cc(OC)c(OC)c(OC)c2)cc1F"
  GI50 [nM]: 3020
